meta.source: ChEMBL document CHEMBL5113415

Would you mind telling me the reported selectivity ratio of each entry?
- Procedure summary: Selectivity index, ratio of CC50 for […] to IC50 for DENV-NGC infected in […]
- Type: toxicity, cell-based
- Measurement parameters: read-out: Ratio CC50/IC50
Returns: the value as a bare number; no unit string appended.

Query: What value of selectivity ratio has been recorded for this entry: "O=C(c1ccc(C(F)(F)F)cc1O)c1[nH]c(Cl)c(Cl)c1-n1c(C(=O)c2ccc(C(F)(F)F)cc2O)cc(Cl)c1Sc1nc2ccccc2o1"
Result: 5

Query: Endpoint output: selectivity ratio of "CN(C)CCn1nnnc1Sc1c(Cl)cc(C(=O)c2ccc(C(F)(F)F)cc2O)n1-c1c(C(=O)c2ccc(C(F)(F)F)cc2O)[nH]c(Cl)c1Cl" . Value?
Result: 1.51

Query: Name the recorded selectivity ratio for "Cc1nnc(Sc2c(Cl)cc(C(=O)c3ccc(C(F)(F)F)cc3O)n2-c2c(C(=O)c3ccc(C(F)(F)F)cc3O)[nH]c(Cl)c2Cl)s1" .
Result: 0.58

Query: Could you share which selectivity ratio value was measured for "O=C(c1ccc(C(F)(F)F)cc1O)c1[nH]c(Cl)c(Cl)c1-n1c(C(=O)c2ccc(C(F)(F)F)cc2O)cc(Cl)c1SCCO" ?
Result: 3.34

Query: Give its selectivity ratio value. Item: "O=C(c1ccc(C(F)(F)F)cc1O)c1[nH]c(Cl)c(Cl)c1-n1c(C(=O)c2ccc(C(F)(F)F)cc2O)cc(Cl)c1SCc1cccnc1"
Result: 1.33

Query: // query selectivity ratio value for entry "O=C(c1ccc(C(F)(F)F)cc1O)c1[nH]c(Cl)c(Cl)c1-n1c(C(=O)c2ccc(C(F)(F)F)cc2O)cc(Cl)c1Sc1ncc[nH]1"
Result: 3.26

Query: Name the recorded selectivity ratio for "O=C(c1ccc(C(F)(F)F)cc1O)c1[nH]c(Cl)c(Cl)c1-n1c(C(=O)c2ccc(C(F)(F)F)cc2O)cc(Cl)c1Sc1nc2ccccc2[nH]1" .
Result: 1.17

Query: What value of selectivity ratio has been reported for the following compound? "O=C(c1ccc(C(F)(F)F)cc1O)c1[nH]c(Cl)c(Cl)c1-n1c(C(=O)c2ccc(C(F)(F)F)cc2O)cc(Cl)c1Sc1nc2ccccc2s1"
Result: 0.11

Query: Entry "O=C(c1ccc(C(F)(F)F)cc1O)c1[nH]c(Cl)c(Cl)c1-n1c(C(=O)c2ccc(C(F)(F)F)cc2O)cc(Cl)c1SCCCO" : reported selectivity ratio = ?
Result: 6.17

Query: I have this compound here, "O=C(c1ccc(C(F)(F)F)cc1O)c1[nH]c(Cl)c(Cl)c1-n1c(C(=O)c2ccc(C(F)(F)F)cc2O)cc(Cl)c1Sc1cnccn1" , and I need its recorded selectivity ratio.
Result: 5.03

Query: Suppose we examine the compound "O=C(c1ccc(C(F)(F)F)cc1O)c1[nH]c(Cl)c(Cl)c1-n1c(C(=O)c2ccc(C(F)(F)F)cc2O)cc(Cl)c1Sc1cccc[n+]1[O-]" ; what selectivity ratio value has been reported?
Result: 2.19

Query: Would you mind telling me what selectivity ratio value was observed for "Cn1nnnc1Sc1c(Cl)cc(C(=O)c2ccc(C(F)(F)F)cc2O)n1-c1c(C(=O)c2ccc(C(F)(F)F)cc2O)[nH]c(Cl)c1Cl" ?
Result: 1.79

Query: So what does the record say about selectivity ratio for "O=C(c1ccc(C(F)(F)F)cc1O)c1[nH]c(Cl)c(Cl)c1-n1c(C(=O)c2ccc(C(F)(F)F)cc2O)cc(Cl)c1Sc1nc2cccnc2[nH]1" ?
Result: 0.75

###

- Procedure summary: Cytotoxicity against […] infected with ZIKV-SMGC-1 incubated for 7 days by CellTiter 96 luminescent cell viability assay
- Format: toxicity, cell-based
- Measurement parameters: time 7 day
Exercise: for every item that follows, state its recorded CC50 at 168 h.
Write it as a number; the unit nM goes unstated.

Query: If you can, please state the reported CC50 at 168 h value of "CN(C)CCn1nnnc1Sc1c(Cl)cc(C(=O)c2ccc(C(F)(F)F)cc2O)n1-c1c(C(=O)c2ccc(C(F)(F)F)cc2O)[nH]c(Cl)c1Cl" .
Result: 2820

Query: Please look up its CC50 at 168 h: "O=C(c1ccc(C(F)(F)F)cc1O)c1[nH]c(Cl)c(Cl)c1-n1c(C(=O)c2ccc(C(F)(F)F)cc2O)cc(Cl)c1Sc1ncc[nH]1"
Result: 3750

Query: Given the compound "O=C(c1ccc(C(F)(F)F)cc1O)c1[nH]c(Cl)c(Cl)c1-n1c(C(=O)c2ccc(C(F)(F)F)cc2O)cc(Cl)c1SCc1ncccn1" , what is its reported CC50 at 168 h?
Result: 610

Query: Return reported CC50 at 168 h; argument: "O=C(c1ccc(C(F)(F)F)cc1O)c1[nH]c(Cl)c(Cl)c1-n1c(C(=O)c2ccc(C(F)(F)F)cc2O)cc(Cl)c1Sc1nc2ccccc2[nH]1"
Result: 110

Query: Data request, read-out CC50 at 168 h, for "O=C(c1ccc(C(F)(F)F)cc1O)c1[nH]c(Cl)c(Cl)c1-n1c(C(=O)c2ccc(C(F)(F)F)cc2O)cc(Cl)c1Sc1nc2cccnc2[nH]1"
Result: 1800

Query: # lookup: CC50 at 168 h of "O=C(c1ccc(C(F)(F)F)cc1O)c1[nH]c(Cl)c(Cl)c1-n1c(C(=O)c2ccc(C(F)(F)F)cc2O)cc(Cl)c1Sc1nc[nH]n1"
Result: 13800

Query: So what's the measured CC50 at 168 h for this one? "O=C(c1ccc(C(F)(F)F)cc1O)c1[nH]c(Cl)c(Cl)c1-n1c(C(=O)c2ccc(C(F)(F)F)cc2O)cc(Cl)c1SCCO"
Result: 1420

Query: # lookup: CC50 at 168 h of "O=C(c1ccc(C(F)(F)F)cc1O)c1[nH]c(Cl)c(Cl)c1-n1c(C(=O)c2ccc(C(F)(F)F)cc2O)cc(Cl)c1SCCc1ccccn1"
Result: 25400

Query: Query (compound): "Cn1nnnc1Sc1c(Cl)cc(C(=O)c2ccc(C(F)(F)F)cc2O)n1-c1c(C(=O)c2ccc(C(F)(F)F)cc2O)[nH]c(Cl)c1Cl" ; field requested: CC50 at 168 h
Result: 3120

Query: // lookup CC50 at 168 h for "O=C(c1ccc(C(F)(F)F)cc1O)c1[nH]c(Cl)c(Cl)c1-n1c(C(=O)c2ccc(C(F)(F)F)cc2O)cc(Cl)c1Sc1nnnn1CCO"
Result: 8010

Query: Field request: CC50 at 168 h | item: "O=C(c1ccc(C(F)(F)F)cc1O)c1[nH]c(Cl)c(Cl)c1-n1c(C(=O)c2ccc(C(F)(F)F)cc2O)cc(Cl)c1Sc1nc2ccccc2s1"
Result: 17100

Query: Tell me the measured CC50 at 168 h of "[N-]=[N+]=NCCCSc1c(Cl)cc(C(=O)c2ccc(C(F)(F)F)cc2O)n1-c1c(C(=O)c2ccc(C(F)(F)F)cc2O)[nH]c(Cl)c1Cl" , please.
Result: 500

Query: Field request: CC50 at 168 h | item: "O=C(c1ccc(C(F)(F)F)cc1O)c1[nH]c(Cl)c(Cl)c1-n1c(C(=O)c2ccc(C(F)(F)F)cc2O)cc(Cl)c1Sc1cnccn1"
Result: 1460

Query: May I ask what CC50 at 168 h has been recorded for "O=C(c1ccc(C(F)(F)F)cc1O)c1[nH]c(Cl)c(Cl)c1-n1c(C(=O)c2ccc(C(F)(F)F)cc2O)cc(Cl)c1SCc1ccccn1" ?
Result: 320

Query: Return reported CC50 at 168 h; argument: "Cc1nnc(Sc2c(Cl)cc(C(=O)c3ccc(C(F)(F)F)cc3O)n2-c2c(C(=O)c3ccc(C(F)(F)F)cc3O)[nH]c(Cl)c2Cl)s1"
Result: 440

###

- Procedure summary: Selectivity index, ratio of CC50 for […] to IC50 for YFV-17D infected in […]
- Format: toxicity, cell-based
- Measurement parameters: read-out: Ratio CC50/IC50
Observation type: selectivity ratio
Respond using a number only.

Query: Can you look up the measured selectivity ratio of "O=C(c1ccc(C(F)(F)F)cc1O)c1[nH]c(Cl)c(Cl)c1-n1c(C(=O)c2ccc(C(F)(F)F)cc2O)cc(Cl)c1Sc1cccs1" for me?
Result: 4.6

Query: Data request, read-out selectivity ratio, for "O=C(c1ccc(C(F)(F)F)cc1O)c1[nH]c(Cl)c(Cl)c1-n1c(C(=O)c2ccc(C(F)(F)F)cc2O)cc(Cl)c1Sc1ccccn1"
Result: 4.6

Query: # get_value(readout='selectivity ratio', item= "Cn1nnnc1Sc1c(Cl)cc(C(=O)c2ccc(C(F)(F)F)cc2O)n1-c1c(C(=O)c2ccc(C(F)(F)F)cc2O)[nH]c(Cl)c1Cl" )
Result: 1.01

Query: What does the data say about its selectivity ratio? Entry: "O=C(c1ccc(C(F)(F)F)cc1O)c1[nH]c(Cl)c(Cl)c1-n1c(C(=O)c2ccc(C(F)(F)F)cc2O)cc(Cl)c1Sc1ncc[nH]1"
Result: 2.93
